Tested on: U-251
Test: NCI tumour cell line growth inhibition, 48 h
The source made the active and inactive calls. Rule as the data show it: active = GI50 up to about 1.1 µM and inactive = higher.

MOLECULE: OC[C@H]1O[C@@H]2O[C@@](COCc3ccccc3)([C@H](OCc3ccccc3)[C@H]2O)[C@@H]1OCc1ccccc1
ASSAYED TARGET: U-251
GI50: 15.7 µM (inactive)
//
MOLECULE: COC(=O)c1cc(OC)c(OC)c(OC)c1-c1cc2c(cc1C=O)OCO2
ASSAYED TARGET: U-251
GI50: > 10 µM (inactive)
//
MOLECULE: CCC(=O)O[C@H]1CC[C@H]2[C@@H]3CCC4=C/C(=N/NC(=O)c5cccc6c(=O)c7ccccc7[nH]c56)CC[C@]4(C)[C@H]3CC[C@]12C
ASSAYED TARGET: U-251
GI50: > 25 µM (inactive)
//
MOLECULE: O=c1c(NO)c([N+](=O)[O-])cnn1-c1ccccc1
ASSAYED TARGET: U-251
GI50: 3.12 µM (inactive)
//
MOLECULE: CC(=O)OC(C)(C)C1CCC(C)(C(O)COc2ccc(CCNC(=O)c3ccccc3)cc2)O1 (stereo unspecified)
ASSAYED TARGET: U-251
GI50: 53.3 µM (inactive)
//
MOLECULE: COc1ccc(/C=C2\CCC(C)/C(=C\c3ccc(OC)c(OC)c3)C2=O)cc1OC (stereo unspecified)
ASSAYED TARGET: U-251
GI50: 5.43 µM (inactive)
//
MOLECULE: CC1C2C=CC1C(c1c3ccc(=O)c(O)c-3oc3c(O)c(O)ccc13)C2C(=O)O (stereo unspecified)
ASSAYED TARGET: U-251
GI50: 36.5 µM (inactive)
//
MOLECULE: O=C1/C(=C/c2ccccc2)N=C2Sc3c([nH]cnc3=O)N12
ASSAYED TARGET: U-251
GI50: > 100 µM (inactive)
//
MOLECULE: O=[N+]([O-])C(/C=C(\Cl)[N+](=O)[O-])=C1Nc2ccccc2N1
ASSAYED TARGET: U-251
GI50: 43.3 µM (inactive)
//
MOLECULE: Cc1ccc(O)c(C2=CC(c3cccc(Cl)c3)SC(=N)N2)c1 (stereo unspecified)
ASSAYED TARGET: U-251
GI50: 18.3 µM (inactive)
//
MOLECULE: CCN(CC)C(=S)Oc1cc2oc(=O)cc(C)c2cc1Cl
ASSAYED TARGET: U-251
GI50: 42.2 µM (inactive)
//
MOLECULE: CCCCCC1=CC(=O)C1(Cl)Cl
ASSAYED TARGET: U-251
GI50: 9.23 µM (inactive)
//
MOLECULE: CN(C)CCNC(=O)Cc1ccccc1Nc1c(Cl)cccc1Cl
ASSAYED TARGET: U-251
GI50: 10.9 µM (inactive)
//
MOLECULE: Cc1nc2cccc(F)c2c(=O)n1C1CCCCNC1=O (stereo unspecified)
ASSAYED TARGET: U-251
GI50: > 10 µM (inactive)
//
MOLECULE: O=C(O)c1cc2ccccc2oc1=O
ASSAYED TARGET: U-251
GI50: > 100 µM (inactive)
//
MOLECULE: CC1=C(C(=O)Nc2ccc([N+](=O)[O-])cc2)C(c2ccc3c(c2)OCO3)C(C(=O)Nc2ccc([N+](=O)[O-])cc2)=C(C)N1
ASSAYED TARGET: U-251
GI50: 30.1 µM (inactive)
//
MOLECULE: CC(=O)OCC1OC(Sc2ccccn2)C=CC1OC(C)=O (stereo unspecified)
ASSAYED TARGET: U-251
GI50: > 100 µM (inactive)
//
MOLECULE: Cc1ccc(S(=O)(=O)N/N=C2/CCC(C(C)(C)C)CC2Br)cc1 (stereo unspecified)
ASSAYED TARGET: U-251
GI50: 8.24 µM (inactive)
//
MOLECULE: CCOC(=O)NC(=S)NC(C)c1ccccc1 (stereo unspecified)
ASSAYED TARGET: U-251
GI50: > 100 µM (inactive)
//
MOLECULE: CC(C)(C)c1ccc2c(c1)S(=O)(=O)Nc1ccc(Cl)cc1NS(=O)(=O)c1cc(C(C)(C)C)ccc1OCCOCCOCCO2
ASSAYED TARGET: U-251
GI50: 29.2 µM (inactive)
//
MOLECULE: O=CN1CCC23CC(O)CCC2C1Cc1cc(Oc2nnnn2-c2ccccc2)cc(O)c13 (stereo unspecified)
ASSAYED TARGET: U-251
GI50: > 100 µM (inactive)
